# TESTED_ON: truncated human beta-secretase (residues 1-458, His6-tagged at the C-terminus) (Homo sapiens, UniProt P56817)
# Construct: truncated human beta-secretase (residues 1-458, His6-tagged at the C-terminus); His6 (C); made in house; host or cells: insect cells D. melanogaster S2 (baculovirus expression system (so in the source))
# Sequence (P56817 22-458): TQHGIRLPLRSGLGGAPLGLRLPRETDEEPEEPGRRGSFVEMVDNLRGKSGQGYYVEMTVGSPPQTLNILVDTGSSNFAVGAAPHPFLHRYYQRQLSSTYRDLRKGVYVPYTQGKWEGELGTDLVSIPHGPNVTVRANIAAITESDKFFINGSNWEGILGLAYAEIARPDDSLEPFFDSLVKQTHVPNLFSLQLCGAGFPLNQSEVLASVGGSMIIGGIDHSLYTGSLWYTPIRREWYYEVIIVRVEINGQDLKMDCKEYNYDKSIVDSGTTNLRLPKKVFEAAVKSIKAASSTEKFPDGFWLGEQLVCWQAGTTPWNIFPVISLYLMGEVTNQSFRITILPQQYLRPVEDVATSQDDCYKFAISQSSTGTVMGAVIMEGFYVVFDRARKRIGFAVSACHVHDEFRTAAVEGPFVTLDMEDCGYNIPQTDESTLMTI
# ASSAY_TEXT: BACE fluorescence quench assay
# Assay type: biochemical
# TEST_PARAMETERS: in vitro enzyme activity, BACE fluorescence assay, pH 4.5; read-out: IC50
MEASURED_PARAMETER: IC50

Examples with answers:
CN1C(=O)C2(CC3(CCCOC3)Oc3ccc(-c4cccc(C#N)c4)cc32)N=C1N (stereo not drawn): 1 to 100 nM
CN1C(=O)C2(CC(C3CCOC(C)(C)C3)Oc3ccc(-c4cc(F)ccc4F)cc32)N=C1N (stereo not drawn): 100 to 500 nM
CN1C(=O)[C@@]2(C[C@H](c3ccccc3)Oc3ccc(-c4cccc(C#N)c4)cc32)N=C1N (racemic): 1 to 100 nM

Briefly, IC50 measured for CN1OC2(CC(C3CCOC(C)(C)C3)Oc3ccc(-c4cccc(F)c4)cc32)N=C1N (stereo not drawn) : 100 to 500 nM

Noted for CN1C(=O)C2(CC3(CCCOC3)Oc3ccc(-c4cc(C#N)ccc4F)cc32)N=C1N (stereo not drawn) : its IC50 reads 100 to 500 nM

For reference, reported IC50 for COCCOc1cccc(-c2ccc3c(c2)C2(CC4(CCCOC4)O3)N=C(N)N(C)O2)c1 (stereo not drawn) stands at 10000 to 50000 nM

---

A collection of compounds and their measured pIC50
# TESTED_ON: truncated human beta-secretase (residues 1-458, His6-tagged at the C-terminus) (Homo sapiens, UniProt P56817)
# Construct: truncated human beta-secretase (residues 1-458, His6-tagged at the C-terminus); His6 (C); made in house; host or cells: insect cells D. melanogaster S2 (baculovirus expression system (so in the source))
# ASSAY_TEXT: BACE fluorescence quench assay
# Assay type: biochemical
pIC50: −log10 of the molar value.

Given item CN(C)C(=O)c1ccccc1-c1ccc2c(c1)C1(CC(c3ccccc3)O2)N=C(N)N(C)C1=O (stereo not shown) [Compound 66] , the value recorded as its pIC50 is 4.30 to 5.00

Measured pIC50 of CN1C(=O)C2(CC(c3ccccc3)Oc3ccc(-c4cccn4C(=O)OC(C)(C)C)cc32)N=C1N (stereo not shown) [Compound 70] : 4.30 to 5.00

The compound CN1C(=O)C2(CC(c3ccccc3)Oc3ccc(-c4ccc(S(C)(=O)=O)cc4)cc32)N=C1N (stereo not shown) [Compound 49] showed pIC50 equal to 5.00 to 5.30

Entry under test: CN1C(=O)C2(CC(c3ccccc3)Oc3ccc(-c4ccccc4C#N)cc32)N=C1N (stereo not shown) [Compound 35] . Its pIC50 was 5.30 to 6.00

---

pIC50 by entry:
# TESTED_ON: truncated human beta-secretase (residues 1-458, His6-tagged at the C-terminus) (Homo sapiens)
# Construct: truncated human beta-secretase (residues 1-458, His6-tagged at the C-terminus); His6 (C); made in house; host or cells: insect cells D. melanogaster S2 (baculovirus expression system (so in the source))
# ASSAY_TEXT: BACE fluorescence quench assay
# Assay type: biochemical
# TEST_PARAMETERS: in vitro enzyme activity, BACE fluorescence assay, pH 4.5; read-out: IC50
pIC50: −log10 of the molar value.

Below, each entry is followed by its recorded pIC50 result.
CN1OC2(CC(C3CCOC(C)(C)C3)Oc3ccc(-c4cccc(Cl)n4)cc32)N=C1N (stereo not shown): 5.30 to 6.00
CN1OC2(CC3(CCCOC3)Oc3ccc(-c4cccc(C#N)c4)cc32)N=C1N (stereo not shown): 5.30 to 6.00
CN1OC2(CC3(CCCOC3)Oc3ccc(C4CCCCC4)cc32)N=C1N (stereo not shown): 5.30 to 6.00

Briefly, pIC50 measured for CN1OC2(CC(C3CCCOC3)Oc3ccc(-c4cccc(C#N)c4)cc32)N=C1N (stereo not shown) : 7.00 to 9.00

---

# TESTED_ON: truncated human beta-secretase (residues 1-458, His6-tagged at the C-terminus) (Homo sapiens, UniProt P56817)
# Construct: truncated human beta-secretase (residues 1-458, His6-tagged at the C-terminus); His6 (C); made in house; host or cells: insect cells D. melanogaster S2 (baculovirus expression system (so in the source))
# ASSAY_TEXT: BACE fluorescence quench assay
# Type: biochemical
# TEST_PARAMETERS: in vitro enzyme activity, BACE fluorescence assay, pH 4.5; read-out: IC50
pIC50: −log10 of the molar value.
MEASURED_PARAMETER: pIC50

The examples below pair each entry with its known result.
CN1O[C@@]2(C[C@@H]([C@@H]3CCOC(C)(C)C3)Oc3ccc(-c4cccc(C#N)c4)cc32)N=C1N [Compound 285]: 6.30 to 7.00
Cc1ccc2c(c1)C1(CC(c3ccccc3)O2)N=C(N)N(C)C1=O (stereo not shown) [Compound 64]: 4.30 to 5.00
CN1OC2(CC(c3ccccc3)Oc3ccc(Oc4ccccc4)cc32)N=C1N (stereo not shown) [Compound 108]: 4.30 to 5.00
CN1OC2(N=C1N)c1ccccc1OCC2CCc1cccc(C#N)c1 (stereo not shown) [Compound 399]: 5.30 to 6.00
CC(C)=CC(CCO)C1CC2(N=C(N)N(C)O2)c2cc(-c3cccc(C#N)c3)ccc2O1 (stereo not shown) [Compound 382]: 5.30 to 6.00
Cc1ccc(-c2ccc3c(c2)C2(CC4(CCCOC4)O3)N=C(N)N(C)C2=O)s1 (stereo not shown) [Compound 414]: 5.30 to 6.00
COc1ccc(OC)c(-c2ccc3c(c2)[C@]2(C[C@]4(CCCOC4)O3)N=C(N)N(C)C2=O)c1 [Compound 307]: 6.30 to 7.00
CC(C)=C[C@H](CCO)[C@@H]1C[C@@]2(N=C(N)N(C)O2)c2cc(-c3cccc(C(F)(F)F)c3)ccc2O1 [Compound 423]: 5.30 to 6.00
CCC1CCC2(C1)CC1(N=C(N)N(C)C1=O)c1cc(-c3cccc(C#N)c3)ccc1O2 (stereo not shown) [Compound 73]: 6.30 to 7.00
CN1C(=O)[C@@]2(C[C@]3(CCCOC3)Oc3ccc(-c4cc(C#N)ccc4C(F)(F)F)cc32)N=C1N [Compound 380]: 5.30 to 6.00

For this compound ( CN1OC2(CC(C3CCCOC3)Oc3ccc(-c4cc(F)cc(C#N)c4)cc32)N=C1N (stereo not shown) [Compound 86] ), measured pIC50 is 7.00 to 9.00

Record CN1O[C@@]2(C[C@@H](C3CCOc4ccccc43)Oc3ccc(-c4cccc(C#N)c4)cc32)N=C1N (stereo partly shown) [Compound 279] , field pIC50: 6.30 to 7.00

Looking up CN1OC2(CC3(CCOCC3)Oc3ccc(-c4cccc(C#N)c4)cc32)N=C1N (stereo not shown) [Compound 115] , I found its pIC50 recorded as 6.00 to 6.30

Consider Cc1cccc(-c2ccc3c(c2)C2(CC(C4CCOC(C)(C)C4)O3)N=C(N)N(C)O2)c1F (stereo not shown) [Compound 363] . Its measured pIC50 is 6.00 to 6.30

Entry CN1O[C@]2(C[C@H](CC3CCCO3)Oc3ccc(-c4cccc(C#N)c4)cc32)N=C1N (stereo in doubt) [Compound 366] , pIC50 reported as 6.00 to 6.30

Documented pIC50 of CN1C(=O)C2(CC3(CCCCC3)Oc3ccc(-c4cccc(C#N)c4)cc32)N=C1N (stereo not shown) [Compound 76] : 6.30 to 7.00

---

# TESTED_ON: truncated human beta-secretase (residues 1-458, His6-tagged at the C-terminus) (Homo sapiens, UniProt P56817)
# Construct: truncated human beta-secretase (residues 1-458, His6-tagged at the C-terminus); His6 (C); made in house; host or cells: insect cells D. melanogaster S2 (baculovirus expression system (so in the source))
# ASSAY_TEXT: BACE fluorescence quench assay
# Format: biochemical
pIC50: −log10 of the molar value.
MEASURED_PARAMETER: pIC50

CN1C(=O)C2(CC(c3ccccc3)Oc3ccc(-c4ccc(CO)cc4)cc32)N=C1N (stereo not shown) [Compound 26]: 5.30 to 6.00

For record COCc1ccc(-c2ccc3c(c2)C2(CC(c4ccccc4)O3)N=C(N)N(C)C2=O)cc1 (stereo not shown) [Compound 54] the listed pIC50 is 4.30 to 5.00

---

Recorded IC50 by entry
# TESTED_ON: truncated human beta-secretase (residues 1-458, His6-tagged at the C-terminus) (Homo sapiens)
# Construct: truncated human beta-secretase (residues 1-458, His6-tagged at the C-terminus); His6 (C); made in house; host or cells: insect cells D. melanogaster S2 (baculovirus expression system (so in the source))
# ASSAY_TEXT: BACE fluorescence quench assay
# Assay type: biochemical
# TEST_PARAMETERS: in vitro enzyme activity, BACE fluorescence assay, pH 4.5; read-out: IC50
# Description: The assay was performed at room temperature in 96-well white opaque Optiplates aque Optiplates (PerkinElmer, Waltham, Mass.) in a total volume of 200 μl of the incubation mixture containing 50 mM sodium acetate buffer, pH 4.5, 0.4 μM FRET substrate, 2.4 nM enzyme, 5% DMSO, and 0.05% Brij-35. […] The reaction was started by addition of enzyme, and the progress of the reaction was followed by measuring fluorescence with an excitation wavelength of 480 nm and an emission wavelength of 520 nm. […]

Study these solved cases before continuing.
CC(C)=CC(CCO)C1CC2(N=C(N)N(C)O2)c2cc(-c3cccc(C#N)c3F)ccc2O1 (centres unmarked): 1000 to 5000 nM
CN1OC2(CCOc3ccc(-c4cccc(C#N)c4)cc32)N=C1N (centres unmarked): 1000 to 5000 nM
CN1OCC2(CC3(CCCOC3)Oc3ccc(-c4cccc(C#N)c4)cc32)N=C1N (centres unmarked): 10000 to 50000 nM
CN1C(=O)C2(CC(c3ccc(C(F)(F)F)cc3)Oc3ccc(-c4cccc(C#N)c4)cc32)N=C1N (centres unmarked): 500 to 1000 nM
CN1C(=O)[C@@]2(C[C@@]3(CCCOC3)Oc3ccc(-c4cccc(Br)c4)cc32)N=C1N: 100 to 500 nM

Looking up CN1C(=O)C2(CC3(CCCCCC3)Oc3ccc(-c4cccc(C#N)c4)cc32)N=C1N (centres unmarked) , I found its IC50 recorded as 500 to 1000 nM

Record CN1OC2(C[C@H]([C@H]3CCOC(C)(C)C3)Oc3ccc(-c4cc(F)ccc4F)cc32)N=C1N (some centres unmarked) , field IC50: 100 to 500 nM

Item: CC1CCC2(C1)CC1(N=C(N)N(C)O1)c1cc(-c3cccc(C#N)c3)ccc1O2 (centres unmarked) | IC50: 5000 to 10000 nM
